FYI, the data here is from ChEMBL document CHEMBL1145498.

Measured ΔTm on Serine/threonine-protein kinase 25 (Homo sapiens) follows.
observable: ΔTm

1. Nc1ncnc2c1c(I)cn2[C@@H]1O[C@H](CO)[C@@H](O)[C@H]1O
4.2 °C
2. CCOc1cc(/C=C(\C#N)C(N)=O)cc(CSc2ccccc2)c1O
0.6 °C
3. O=C1c2ccccc2-c2n[nH]c3cccc1c23
4.8 °C
4. O=C(O)/C=C/c1cc(CO)ccc1CO
0.5 °C
5. Cc1cc2ncc(-c3ccccc3)nc2cc1C
0.3 °C
6. CCOC(=O)c1c(C)[nH]c(/C=C2\C(=O)Nc3ccccc32)c1C
0.6 °C
7. O=c1c(O)c(-c2ccc(O)c(O)c2)oc2cc(O)cc(O)c12
5.3 °C
8. CC(C)n1cnc2c(NCc3ccccc3)nc(NCCCO)nc21
0.1 °C
9. N#CCCc1ccc2c(c1)-c1[nH]c3ccc([N+](=O)[O-])cc3c1CC(=O)N2
4.2 °C
10. Nc1nc(Nc2ccc(S(N)(=O)=O)cc2)nn1C(=S)Nc1c(F)cccc1F
12 °C
11. COC(=O)[C@]1(O)C[C@@H]2O[C@@]1(C)n1c3ccccc3c3c4c(c5c6ccccc6n2c5c31)C(=O)NC4 (single isomer, unassigned)
4.4 °C
12. C=CNC#N
0.4 °C

---

measured_target: Calcium/calmodulin-dependent protein kinase type II subunit delta (Homo sapiens) (UniProt Q13557)
Sequence (Q13557 whole entry): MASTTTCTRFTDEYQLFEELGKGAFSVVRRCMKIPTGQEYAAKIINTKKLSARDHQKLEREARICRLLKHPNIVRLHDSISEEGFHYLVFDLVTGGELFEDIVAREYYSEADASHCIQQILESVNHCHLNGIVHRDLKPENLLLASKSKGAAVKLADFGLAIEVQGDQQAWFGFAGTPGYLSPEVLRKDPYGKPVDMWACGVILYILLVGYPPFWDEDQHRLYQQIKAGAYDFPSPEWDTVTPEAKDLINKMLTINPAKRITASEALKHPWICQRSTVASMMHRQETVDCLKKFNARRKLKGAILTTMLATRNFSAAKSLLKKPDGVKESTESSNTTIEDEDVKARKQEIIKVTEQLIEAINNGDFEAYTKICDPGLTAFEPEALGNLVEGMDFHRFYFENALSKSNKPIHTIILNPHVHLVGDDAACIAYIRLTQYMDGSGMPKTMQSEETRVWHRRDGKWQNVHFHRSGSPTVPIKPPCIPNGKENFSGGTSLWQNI
observable: ΔTm (°C)

1. CN(C)c1ncnc2nc[nH]c12
-0.2
2. Cn1cnc2c(NCc3ccccc3)nc(NCCO)nc21
-0.2
3. O=C1Cc2c([nH]c3ccc(Br)cc23)-c2ccccc2N1
0.2
4. C[C@@H]1C[C@H]2O[C@@H]2/C=C\C=C\C(=O)Cc2c(Cl)c(O)cc(O)c2C(=O)O1
-0.4
5. Oc1ccc(-c2nc(-c3ccc(F)cc3)c(-c3ccncc3)[nH]2)cc1
-0.1
6. NC(=O)c1ccc2[nH]c(-c3ccc(Oc4ccc(Cl)cc4)cc3)nc2c1
1.5
7. Cc1cc(C=C2C(=O)C=CC2=O)cc(C)c1O
1.1
8. COc1cc2c(cc1OC)-c1n[nH]c(Nc3cccc(F)c3)c1C2
1.2
9. COc1cc(OC)c(/C=C2\C(=O)Nc3ccccc32)c(OC)c1
-0.3
10. NC1=NC(=O)/C(=C2\CCNC(=O)c3[nH]c(Br)cc32)N1
0
11. CN(C)CC1CCn2c(c(C3=C(c4c[nH]c5ccccc45)C(=O)NC3=O)c3ccccc32)C1 (stereo not drawn)
0
12. Ic1cccc(CSc2nnc(-c3ccncc3)o2)c1
-0.2
13. Nc1n[nH]c2nnc(-c3c(-c4ccccc4)nn4ccccc34)cc12
-0.6
14. CC(C)n1cnc2c(NCc3ccccc3O)nc(NCCCO)nc21
-0.1
15. O=S(=O)(NCCNC/C=C/c1ccc(Br)cc1)c1cccc2cnccc12
-0.2
16. CN1CCc2[nH]c(=S)c(C#N)c(-c3cccs3)c2C1
-0.8
17. NS(=O)(=O)c1ccc(Nc2nc(OCC3CCCCC3)c3nc[nH]c3n2)cc1
0.2
18. Cc1ccc(NC(=O)c2cccc(N(C)C)c2)cc1NC(=O)c1ccc(O)cc1
0

---

Measured ΔTm on Cyclin-dependent kinase 6 (Homo sapiens) follows.
observable: ΔTm (°C)

1) COc1nccc(-c2c(-c3ccc(F)cc3)ncn2[C@H]2CC[C@H](O)CC2)n1
0.1
2) CN(C)c1ncnc2nc[nH]c12 [DIMETHYLADENINE]
0.1
3) O=C1Nc2ccc(I)cc2/C1=C1/Nc2ccccc2/C1=N\O
0.8
4) O=C1NC(=O)c2c1c1c3ccccc3n3c1c1c2c2ccccc2n1C1CCC3O1
-0.3
5) CC(C)(C)c1nc2c3ccc(F)cc3c3c(=O)[nH]ccc3c2[nH]1
0.4
6) COc1cc2ncnc(Nc3ccc(NC(=O)c4ccccc4)cc3)c2cc1OC [ANILINOQUINAZOLINE1]
1.1
7) O=C(O)Cc1ccc(O)c([N+](=O)[O-])c1
0.1
8) COc1cc2ncnc(Nc3ccc(F)c(Cl)c3)c2cc1OCCCN1CCOCC1
0.6
9) N#CCCc1ccc2c(c1)-c1[nH]c3ccc([N+](=O)[O-])cc3c1CC(=O)N2 [ALSTERPAULLONE 2]
3.2
10) CCOc1cc2ncnc(Nc3cccc(Br)c3)c2cc1OCC
0.2
11) Nc1ncnc2c1c(I)cn2[C@@H]1O[C@H](CO)[C@@H](O)[C@H]1O
-0.2
12) CC[C@H](CO)Nc1nc(NCc2ccccc2)c2ncn(C(C)C)c2n1 [SELICICLIB]
0.2
13) CN1CCC(Nc2ncc3ncnc(Nc4ccc(F)c(Cl)c4)c3n2)CC1 [FALNIDAMOL]
1
14) Oc1cccc(-c2nc(N3CCOCC3)c3oc4ncccc4c3n2)c1
-0.4
15) COc1ccc(S(=O)(=O)N(CCO)c2ccccc2CN(C)C/C=C/c2ccc(Cl)cc2)cc1
-0.3
16) c1ccc(-c2n[nH]c3c2oc2ccccc23)cc1
0.6
17) Cn1cc(C2=C(c3cn(CCCN)c4ccccc34)C(=O)NC2=O)c2ccccc21
1.3
